src = patent US11814392B2

molecular target: PMCT (Homo sapiens); construct: expressed in transfected cells; host or cells: HEK293T cells transfected with pcDNA3.1(+)-SLC13A5 using PEI; assay: PMCT inhibition, citrate transport assay of whole HEK293T cells; assay type: cell-based; conditions: HEK-293T, read-out: PMCT Inhibition, Inhibitor Concentration 28 μM, HEK293T cells
value_kind: inhibition at 28 µM

In [3]: df
Out[3]:
                                   compound      measured_target           value_kind  observed_measurement
0  COc1cc2c(cc1OC)C(Sc1ccc(SC)cc1)c1c(nc(N)c(C#N)c1N)O2 (stereo not shown)  PMCT (Homo sapiens)  inhibition at 28 µM                -45.9%
1  COc1ccc2c(c1)Oc1nc(N)c(C#N)c(N)c1C2Sc1ccc(O)cc1 (stereo not shown)  PMCT (Homo sapiens)  inhibition at 28 µM                -13.3%
2  COc1ccc(SC2c3ccc(O)cc3Oc3nc(N)c(C#N)c(N)c32)cc1 (stereo not shown)  PMCT (Homo sapiens)  inhibition at 28 µM                 -4.5%
3  COc1ccc(SC2c3c(OC)cc(OC)cc3Oc3nc(N)c(C#N)c(N)c32)cc1 (stereo not shown)  PMCT (Homo sapiens)  inhibition at 28 µM                   24%

----------
molecular target: PMCT (Homo sapiens); construct: expressed in transfected cells; host or cells: HEK293T cells transfected with pcDNA3.1(+)-SLC13A5 using PEI; assay: PMCT inhibition, citrate transport assay of whole HEK293T cells; format: cell-based; settings: HEK-293T, read-out: PMCT Inhibition, Inhibitor Concentration 280 μM, HEK293T cells
Consider the following compounds and their measured inhibition at 280 µM readings.
value_kind: inhibition at 280 µM

                                   compound      measured_target  observed_measurement
0  COc1ccc(SC2c3c(OC)cc(OC)cc3Oc3nc(N)c(C#N)c(N)c32)cc1 (stereo not shown) [Compound 2]  PMCT (Homo sapiens)                   50%
1  COc1ccc(SC2c3ccc(O)cc3Oc3nc(N)c(C#N)c(N)c32)cc1 (stereo not shown) [Compound 5]  PMCT (Homo sapiens)                 -3.2%
2  CCN(CC)c1ccc2c(c1)Oc1nc(N)c(C#N)c(N)c1C2Sc1ccc(OC)cc1 (stereo not shown) [Compound 4]  PMCT (Homo sapiens)                 -8.7%
3  CSc1ccc(SC2c3ccc(O)cc3Oc3nc(N)c(C#N)c(N)c32)cc1 (stereo not shown) [Compound 3]  PMCT (Homo sapiens)                 58.7%

----------
Consider the following compounds and their measured inhibition at 28 µM readings.
target: PMCT (Homo sapiens); construct: expressed in transfected cells; host or cells: HEK293T cells transfected with pcDNA3.1(+)-SLC13A5 using PEI; assay: PMCT inhibition, citrate transport assay of whole HEK293T cells; assay type: cell-based; details: HEK-293T, read-out: PMCT Inhibition, Inhibitor Concentration 28 μM, HEK293T cells
value_kind: inhibition at 28 µM (%)

>>> print(df.to_string())
                                   compound      measured_target           value_kind  unit_text  observed_measurement
0  CSc1ccc(SC2c3ccc(C)cc3Oc3nc(N)c(C#N)c(N)c32)cc1 (stereo not shown)  PMCT (Homo sapiens)  inhibition at 28 µM          %                   1.8
1  CCN(CC)c1ccc2c(c1)Oc1nc(N)c(C#N)c(N)c1C2Sc1ccc(OC)cc1 (stereo not shown)  PMCT (Homo sapiens)  inhibition at 28 µM          %                  28.6
2  CSc1ccc(SC2c3ccc(O)cc3Oc3nc(N)c(C#N)c(N)c32)cc1 (stereo not shown)  PMCT (Homo sapiens)  inhibition at 28 µM          %                   9.9
3  CCN(CC)c1ccc2c(c1)Oc1nc(N)c(C#N)c(N)c1C2Sc1ccc(SC)cc1 (stereo not shown)  PMCT (Homo sapiens)  inhibition at 28 µM          %                  -1.5

----------
target: PMCT (Homo sapiens, UniProt Q86YT5); construct: expressed in transfected cells; host or cells: HEK293T cells transfected with pcDNA3.1(+)-SLC13A5 using PEI; experiment: PMCT inhibition, citrate transport assay of whole HEK293T cells; assay type: cell-based; details: HEK-293T, read-out: PMCT Inhibition, Inhibitor Concentration 2.8 μM, HEK293T cells
Sequence (Q86YT5 whole entry): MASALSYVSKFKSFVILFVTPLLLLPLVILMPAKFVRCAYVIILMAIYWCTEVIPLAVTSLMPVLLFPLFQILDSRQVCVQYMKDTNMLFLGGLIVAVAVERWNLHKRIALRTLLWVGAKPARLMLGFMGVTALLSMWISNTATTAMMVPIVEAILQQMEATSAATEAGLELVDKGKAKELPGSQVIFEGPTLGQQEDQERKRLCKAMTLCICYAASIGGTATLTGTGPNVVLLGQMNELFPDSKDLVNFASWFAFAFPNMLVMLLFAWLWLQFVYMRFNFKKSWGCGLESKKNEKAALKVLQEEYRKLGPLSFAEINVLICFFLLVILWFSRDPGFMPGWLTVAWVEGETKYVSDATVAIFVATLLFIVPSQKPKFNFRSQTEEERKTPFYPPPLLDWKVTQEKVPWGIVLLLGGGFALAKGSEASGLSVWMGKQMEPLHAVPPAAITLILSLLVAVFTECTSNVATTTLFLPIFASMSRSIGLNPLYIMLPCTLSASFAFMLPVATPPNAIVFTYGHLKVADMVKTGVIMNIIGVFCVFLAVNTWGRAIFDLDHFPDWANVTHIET
I would appreciate it if you labelled entries rule met when inhibition at 2.8 µM is 30% or higher, otherwise rule not met.

                                   compound      category
0  COc1ccc2c(c1)Oc1nc(N)c(C#N)c(N)c1C2Sc1ccc(O)cc1 (centres unmarked)  rule not met
1  COc1cc2c(cc1OC)C(Sc1ccc(SC)cc1)c1c(nc(N)c(C#N)c1N)O2 (centres unmarked)  rule not met
2  COc1ccc(SC2c3ccc(O)cc3Oc3nc(N)c(C#N)c(N)c32)cc1 (centres unmarked)  rule not met
3  CSc1ccc(SC2c3ccc(O)cc3Oc3nc(N)c(C#N)c(N)c32)cc1 (centres unmarked)  rule not met
4  CCN(CC)c1ccc2c(c1)Oc1nc(N)c(C#N)c(N)c1C2Sc1ccc(OC)cc1 (centres unmarked)  rule not met
5  CSc1ccc(SC2c3ccc(C)cc3Oc3nc(N)c(C#N)c(N)c32)cc1 (centres unmarked)      rule met
6  COc1ccc(SC2c3c(OC)cc(OC)cc3Oc3nc(N)c(C#N)c(N)c32)cc1 (centres unmarked)      rule met
7  CCN(CC)c1ccc2c(c1)Oc1nc(N)c(C#N)c(N)c1C2Sc1ccc(SC)cc1 (centres unmarked)  rule not met

----------
molecular target: PMCT (Homo sapiens, UniProt Q86YT5); construct: expressed in transfected cells; host or cells: HEK293T cells transfected with pcDNA3.1(+)-SLC13A5 using PEI; test: PMCT inhibition, citrate transport assay of whole HEK293T cells; assay type: cell-based; conditions: HEK-293T, read-out: PMCT Inhibition, Inhibitor Concentration 140 μM, HEK293T cells
Consider the following compounds and their measured inhibition at 140 µM readings.
value_kind: inhibition at 140 µM (%)

>>> df
                                   compound            value_kind  unit_text  observed_measurement
0  COc1ccc(SC2c3c(OC)cc(OC)cc3Oc3nc(N)c(C#N)c(N)c32)cc1 (stereo not shown)  inhibition at 140 µM          %                  48.5
1  COc1ccc2c(c1)Oc1nc(N)c(C#N)c(N)c1C2Sc1ccc(O)cc1 (stereo not shown)  inhibition at 140 µM          %                  42.5
2  CSc1ccc(SC2c3ccc(O)cc3Oc3nc(N)c(C#N)c(N)c32)cc1 (stereo not shown)  inhibition at 140 µM          %                  28.6
3  COc1cc2c(cc1OC)C(Sc1ccc(SC)cc1)c1c(nc(N)c(C#N)c1N)O2 (stereo not shown)  inhibition at 140 µM          %                  46.8

----------
Consider the following compounds and their measured inhibition at 280 µM readings.
biological target: PMCT (Homo sapiens); construct: expressed in transfected cells; host or cells: HEK293T cells transfected with pcDNA3.1(+)-SLC13A5 using PEI; experiment: PMCT inhibition, citrate transport assay of whole HEK293T cells; format: cell-based; settings: HEK-293T, read-out: PMCT Inhibition, Inhibitor Concentration 280 μM, HEK293T cells
value_kind: inhibition at 280 µM (%)

In [3]: df
Out[3]:
                                   compound  observed_measurement
0  CSc1ccc(SC2c3ccc(C)cc3Oc3nc(N)c(C#N)c(N)c32)cc1 (stereo not shown)                  35.7
1  CCN(CC)c1ccc2c(c1)Oc1nc(N)c(C#N)c(N)c1C2Sc1ccc(SC)cc1 (stereo not shown)                  58.4
2  COc1cc2c(cc1OC)C(Sc1ccc(SC)cc1)c1c(nc(N)c(C#N)c1N)O2 (stereo not shown)                  70.2
3  COc1ccc2c(c1)Oc1nc(N)c(C#N)c(N)c1C2Sc1ccc(O)cc1 (stereo not shown)                  62.9
